Recorded values, source patent US9242981B2.

- experimental-target: Mouse ERK2 protein (Mus musculus (Mouse), UniProt P63085)
- Sequence (P63085 whole entry): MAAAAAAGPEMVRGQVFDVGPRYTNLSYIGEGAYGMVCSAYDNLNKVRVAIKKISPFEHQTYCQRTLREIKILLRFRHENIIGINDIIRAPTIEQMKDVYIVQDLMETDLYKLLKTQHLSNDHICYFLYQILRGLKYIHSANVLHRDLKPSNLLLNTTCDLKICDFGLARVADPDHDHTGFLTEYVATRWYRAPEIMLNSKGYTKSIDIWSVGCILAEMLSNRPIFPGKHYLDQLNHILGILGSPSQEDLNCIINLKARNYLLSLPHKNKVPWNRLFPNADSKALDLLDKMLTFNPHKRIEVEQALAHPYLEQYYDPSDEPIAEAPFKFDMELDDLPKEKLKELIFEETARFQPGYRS
- measurement-description: Coupled MEK1/ERK2 IMAP assay or Active ERK2 IMAP assay
- Type: biochemical
- settings: Table 1, class symbols, 30 μM ATP
pIC50: −log10 of the molar value.
Reported values of pIC50 for individual entries

Look at this molecule and give its reported pIC50. `O=C(Cc1ccc(-c2ccccc2)cc1)N1CCc2[nH]nc(-c3ccncc3)c2C1`
6.00 to 7.00

Try this molecule next: COc1cccc(F)c1CN1CC(C)CC(NC(=O)N2CCc3[nH]nc(-c4ccnc(C)c4)c3C2)C1 (centres unmarked)
7.00 to 7.68

Try this molecule next: `O=C(Cc1cccs1)N1CCc2[nH]nc(-c3ccncc3)c2C1`
4.00 to 6.00

Try this molecule next: `COc1cccc(CC(=O)N2CCc3[nH]nc(-c4ccncc4)c3C2)c1`
4.00 to 6.00

Try this molecule next: `O=C(Cc1cccc(Br)c1)N1CCc2[nH]nc(-c3ccncc3)c2C1`
6.00 to 7.00
